// provenance: patent US10065948B2

- Tested on: cellular histone deacetylase enzymatic activity in Jurkat E6-1 cells
- PROTOCOL TEXT: Inhibition of cellular HDAC activity, Boc-Lys(Tfa)-AMC substrate (Cell Lys-TFA)
- Type: cell-based
- ASSAY CONTEXT: Homo sapiens, Jurkat E6.1, Lys-TFA substrate
- Source text: The potency of the compounds is quantified by measuring the cellular histone deacetylase enzymatic activity using the fluorogenic substrate, Boc-Lys(Tfa)-AMC. After penetration in Jurkat E6-1 cells, the substrate is deacetylated to Boc-Lys-AMC. After cell lysis and cleavage by trypsin, the fluorophore AMC is released from the deacetylated substrate only. The fluorescence of the sample is directly related to the histone deacetylase activity in the sample. […]
QUANTITY NAME: IC50 (nM)

Guide cases for IC50, answers given:
Cc1c(F)cccc1C1(C(=O)NO)CCc2ncncc2C1 (stereo not drawn) [Example 45] : 2600
Cc1c(F)cccc1C1(C(=O)NO)CCc2cn(CC(F)(F)F)nc2CC1 (single isomer, unassigned) [Example 84] : 1400

(I) Cc1c(F)cccc1[C@]1(C(=O)NO)CCc2nc(-c3ccccc3Cl)ncc21 [Example 49]
(II) Cc1c(F)cccc1C1(C(=O)NO)CCc2nn(CC(F)(F)F)c(C3CC3)c2C1 (stereo not drawn) [Example 39]
Exam item: I need your help: which of the pair I , II has higher IC50? Please identify the chosen entry by its label.
Marked response: II
(II: 1800 nM, I: 250 nM)

(I) COc1ccc(-c2nc3c(s2)C[C@@](C(=O)NO)(c2cccc(F)c2C)C3)nc1 [Example 71]
(II) Cc1ccccc1-c1nc2c(s1)[C@](C(=O)NO)(c1cccc(F)c1C)CC2 [Example 73]
(III) Cc1c(F)cccc1C1(C(=O)NO)Cc2nc(-c3cccc(F)c3)sc2C1 (single isomer, unassigned) [Example 64]
Exam item: Order by IC50, ascending. Please list the labels in the order you were asked to rank them.
Marked response: I, III, II
